- Target Or Test System: Recombinant human his-tagged IGF 1R extracellular domain protein (human) (UniProt P08069)
- Assay Name: SPR, captured antibody, dissociation at pH 6
As shown below, each of these binders has a reported kon value.

{"columns": ["Binder", "Unit Abbrev", "kon"],
 "data": [
  ["VRDN-03041 (antibody, V domains shown) VH: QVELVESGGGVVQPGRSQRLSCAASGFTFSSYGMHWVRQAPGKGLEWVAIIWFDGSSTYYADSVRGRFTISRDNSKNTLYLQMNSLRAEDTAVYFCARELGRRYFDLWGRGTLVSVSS VL: EIVLTQSPATLSLSPGERATLSCRASHSVSSYLAWYQQKPGQAPRLLIYDASKRATGIPARFSGSGSGTDFTLTISSLEPEDFAVYYCQQRSKWPPWTFGQGTKVESK", "M⁻¹ s⁻¹", 65000],
  ["VRDN-03104 (antibody, V domains shown) VH: QVQLVESGGGVVQPGRSLRLSCAASGFTFSDHYMDWVRQAPGKGLEWVAIIWFDGSSKYYADSVKGRFTISRDNSKNTLYLQMNSLRAEDTAVYYCARELGRRYFDIWGRGTLVTVSS VL: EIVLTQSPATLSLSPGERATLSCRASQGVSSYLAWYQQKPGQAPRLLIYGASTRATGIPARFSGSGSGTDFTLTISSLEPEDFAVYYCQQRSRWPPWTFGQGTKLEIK", "M⁻¹ s⁻¹", 173000],
  ["VRDN-03051 (antibody, V domains shown) VH: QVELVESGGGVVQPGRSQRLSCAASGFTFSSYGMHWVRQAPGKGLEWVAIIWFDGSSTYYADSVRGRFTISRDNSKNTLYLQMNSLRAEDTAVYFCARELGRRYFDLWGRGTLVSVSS VL: EIVLTQSPATLSLSPGERATLSCRASQSVSSYLAWYQQKPGQAPRLLIYDAHKRATGIPARFSGSGSGTDFTLTISSLEPEDFAVYYCQQRSKWPPWTFGQGTKVESK", "M⁻¹ s⁻¹", 76200]
]}
